Recorded FXa assay OD, 20 nM Ab, 10 nM TFPI values for a group of binders are listed next.
Biological target: recombinant human TFPI (tissue factor pathway inhibitor) (human, UniProt P10646 29-304)
Assay: cell-based or functional assay
MEASURED ATTRIBUTE: FXa assay OD, 20 nM Ab, 10 nM TFPI

[[record]]
binder = "clone 4017 (antibody, V domains shown) VH: EVQLVESGGGLVKPGGSLRLSCAASGFTFSSYAMNWVRQAPGKGLEWVGTITTGGSYTYYADSVQGRFTISRDNAKNSLYLQMNSLRAEDTAVYYCARQDGYFLMDYWGQGTLVTVSS VL: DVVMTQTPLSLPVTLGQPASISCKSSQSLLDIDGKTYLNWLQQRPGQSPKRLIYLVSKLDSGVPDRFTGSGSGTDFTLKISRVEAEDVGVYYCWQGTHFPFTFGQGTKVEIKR"
number = 0.696

[[record]]
binder = "clone 4141 (antibody, V domains shown) VH: EVQLVESGGGLVKPGGSLRLSCAASGFTFSSYAMNWVRQAPGKGLEWVGTITTGGSHTYYADSVEGRFTISRDNAKNSLYLQMNSLRAEDTAVYYCARQDGYFLMDYWGQGTLVTVSS VL: DVVMTQTPLSLPVTLGQPASISCKSSQSLLDVDGKTYLNWLQQRPGQSPKRLIYLVSKLDSGVPDRFTGSGSGTDFTLKISRVEAEDVGVYYCWQGTHFPFTFGQGTKVEIKR"
number = 0.62

[[record]]
binder = "clone 3131 (antibody, V domains shown) VH: EVQLVESGGGLVKPGGSLRLSCAASGFTFSSYAMSWVRQAPGKGLEWVSTITTGGSYTYYADSVQGRFTISRDNAKNSLYLQMNSLRAEDTAVYYCARQDGQFLMDYWGQGTLVTVSS VL: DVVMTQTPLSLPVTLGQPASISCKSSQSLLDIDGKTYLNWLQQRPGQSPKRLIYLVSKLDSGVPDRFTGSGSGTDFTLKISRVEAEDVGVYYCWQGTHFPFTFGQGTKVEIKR"
number = 0.474

[[record]]
binder = "clone 3120 (antibody, V domains shown) VH: EVQLVESGGGLVKPGGSLRLSCAASGFTFSSYAMNWVRQAPGKGLEWVSTITTGGSYTYYADSVEGRFTISRDNAKNSLYLQMNSLRAEDTAVYYCARQDGYFLMDYWGQGTLVTVSS VL: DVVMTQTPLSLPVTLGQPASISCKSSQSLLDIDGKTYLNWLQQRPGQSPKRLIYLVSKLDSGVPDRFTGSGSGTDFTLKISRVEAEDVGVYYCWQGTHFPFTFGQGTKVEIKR"
number = 0.626

[[record]]
binder = "clone 3115 (antibody, V domains shown) VH: EVQLVESGGGLVKPGGSLRLSCAASGFTFSSYAMNWVRQAPGKGLEWVGTITTGGSHTYYADSVDGRFTISRDNAKNSLYLQMNSLRAEDTAVYYCARQDGNFLMDYWGQGTLVTVSS VL: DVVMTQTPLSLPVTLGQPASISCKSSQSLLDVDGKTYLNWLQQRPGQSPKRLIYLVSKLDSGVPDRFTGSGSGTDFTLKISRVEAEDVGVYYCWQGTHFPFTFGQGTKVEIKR"
number = 0.532

